Reported ALT values follow for various compounds
Assay: ALT and AST after intravenous administration to rat (Table 19A)
Format: in vivo
Conditions: 2 mpk
Answer with a number only, understood to be in international units.

Field: example entries. Status: answers known.
[
  {
    "compound": "CCCCCCCCC(CC)OC(=O)CCCCCCCN(CCO)CCCCCCCC(=O)OC(CCCCCCCC)CCCCCCCC (stereo not shown)",
    "readout label": "ALT",
    "data value": 77.8
  },
  {
    "compound": "CCCCC/C=C\\C/C=C\\CCCCCCCCC(CCCCCCCC/C=C\\C/C=C\\CCCCC)OC(=O)CCCN(C)C [MC3, DLin-MC3-DMA, reference compound]",
    "readout label": "ALT",
    "data value": 79.6
  },
  {
    "compound": "CCCCCCCCC(CCC)OC(=O)CCCCCCCN(CCO)CCCCCCCC(=O)OC(CCCCCCCC)CCCCCCCC (stereo not shown)",
    "readout label": "ALT",
    "data value": 78.8
  }
]

Moving on to the next compound.
[in] // lookup ALT for CCCCCCCCC(C)OC(=O)CCCCCCCN(CCO)CCCCCCCC(=O)OC(CCCCCCCC)CCCCCCCC (stereo not shown)
[out] 66.0
